# TARGET_UNDER_TEST: Aryl hydrocarbon receptor (Homo sapiens)
# METHOD_SUMMARY: ATG_Ahr_CIS: Attagene CIS-FACTORIAL HepG2 Assay for human Aryl Hydrocarbon Receptor (Ahr) (AID 2282930)
# MEASUREMENT_SETUP: HepG2 AhR cis-factorial reporter transcription; actives raise or lower the signal
Active and inactive are the calls of the source. The calls were made as follows: active = hit-call score of the fitted dose curve at least 0.9, where 1 is the maximum; inactive = score below 0.9.
Outcomes: yes (1) for active, no (0) for inactive

{"columns": ["MOLECULE", "DISCRETE_LABEL"],
 "data": [
  ["CCCCCCC(C)O (centres undefined)", "no (0)"],
  ["CCCCOCCOCCO", "no (0)"],
  ["CC(=O)C1=C(C)[C@@H]2C[C@@]3(C1)[C@H](C)CC[C@H]3C2(C)C", "yes (1)"],
  ["NCCN1CCNCC1", "no (0)"],
  ["N#CCCNCCC#N", "no (0)"],
  ["C=C(C)C(=O)OCCN(C)C", "no (0)"],
  ["N=C1N=C(N)c2ccccc21", "no (0)"],
  ["COc1ccccc1NC(=O)CC(C)=O", "yes (1)"],
  ["CC(=O)OC(C)(C)C", "no (0)"]
]}
